All figures here come from ChEMBL document CHEMBL2150920.

target: Succinate receptor 1 (Homo sapiens); experiment: Antagonist activity at human GPR91 receptor expressed in CHO-K1 cells co-expressing Galpha and Gqi5 G-protein assessed as inhibition of succinate-induced increase in intracellular calcium level by FLIPR assay
Sequence (Q9BXA5 whole entry): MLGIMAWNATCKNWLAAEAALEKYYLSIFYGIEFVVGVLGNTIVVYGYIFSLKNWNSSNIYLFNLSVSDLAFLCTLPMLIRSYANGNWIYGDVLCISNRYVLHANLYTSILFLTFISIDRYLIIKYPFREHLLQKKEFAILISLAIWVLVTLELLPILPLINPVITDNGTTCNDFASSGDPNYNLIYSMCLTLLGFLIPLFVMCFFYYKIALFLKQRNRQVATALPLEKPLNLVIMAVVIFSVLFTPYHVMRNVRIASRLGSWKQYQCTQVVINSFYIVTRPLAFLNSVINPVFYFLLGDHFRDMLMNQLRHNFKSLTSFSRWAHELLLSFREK
Decision: IC50 beneath 60 nM gives 1 (yes); IC50 meeting or exceeding 60 nM gives 0 (no).

[
  {
    "RECORD_SMILES": "C[C@H](NC(=O)C(F)(F)c1ccc(-c2ccc3cccnc3n2)cc1)c1ccc(-c2ccc(F)c(C(F)(F)F)c2)cc1",
    "LABEL": "1 (yes)"
  },
  {
    "RECORD_SMILES": "CCc1cccc(-c2ccc(CNC(=O)CCCc3ccc4cccnc4n3)cc2)c1",
    "LABEL": "0 (no)"
  },
  {
    "RECORD_SMILES": "Fc1ccc(-c2ccc(-c3nnc(CCCc4ccc5cccnc5n4)o3)cc2)cc1Cl",
    "LABEL": "0 (no)"
  },
  {
    "RECORD_SMILES": "Fc1ccc(-c2nnc(CCCCc3ccc4cccnc4n3)o2)cc1OC(F)(F)F",
    "LABEL": "0 (no)"
  },
  {
    "RECORD_SMILES": "O=C(CCCc1ccc2cccnc2n1)NCc1cnc(-c2ccc(F)c(C(F)(F)F)c2)nc1",
    "LABEL": "1 (yes)"
  },
  {
    "RECORD_SMILES": "O=C(CCCc1ccc2cccnc2n1)NCc1cc(-c2cccc(Cl)c2)no1",
    "LABEL": "0 (no)"
  },
  {
    "RECORD_SMILES": "O=C(CCCc1ccc2cccnc2n1)NCc1nnc(-c2ccc(F)c(C(F)(F)F)c2)o1",
    "LABEL": "0 (no)"
  },
  {
    "RECORD_SMILES": "O=C(CCCc1ccc2cccnc2n1)NCc1cnn(-c2ccc(F)c(C(F)(F)F)c2)c1",
    "LABEL": "0 (no)"
  },
  {
    "RECORD_SMILES": "Fc1ccc(-c2ccc(-c3nnc(CCCc4ccc5cccnc5n4)[nH]3)cc2)cc1Cl",
    "LABEL": "0 (no)"
  }
]

---

experiment: Terminal half life in Wistar rat at 3 mg/kg, iv; format: ADME, organism-based; design: dose 3 mg/kg, route intravenous; details: in vivo, read-out: beta t1/2 (converted)

[
  {
    "RECORD_SMILES": "C[C@H](NC(=O)Cc1ccc(-c2ccc3cccnc3n2)cc1)c1ccc(-c2ccc(F)c(C(F)(F)F)c2)cc1",
    "half-life": "54 min"
  }
]

---

experiment: AUC (0 to 24 hrs) in Wistar rat plasma at 30 mg/kg, po; format: ADME, organism-based; set-up: time < 24 hr, dose 30 mg/kg, route oral
Below, each of the compounds is paired with its reported AUC(0-t) at 24 h value.
REPORTED_ENDPOINT: AUC(0-t) at 24 h

[
  {
    "RECORD_SMILES": "O=C(CCCc1ccc2cccnc2n1)NCc1cc(-c2ccc(F)c(C(F)(F)F)c2)no1",
    "VALUE_MEASURED": "69 µM·h"
  },
  {
    "RECORD_SMILES": "FC(F)(F)Oc1ccc(-c2nnc(CCCCc3ccc4cccnc4n3)o2)cc1Cl",
    "VALUE_MEASURED": "472 µM·h"
  }
]
